# target-desc: ROCK2 (Homo sapiens (Human))
# assay-method-text: ROCK assay (LABCHIP peptide phosphorylation), ROCK2
# Type: biochemical
# cond: 5 μM ATP, 1.5 μM peptide substrate
measurement-type: IC50

Some molecules with known IC50 results, for comparison:
• CN1CCN(C(=O)COc2ccc3c(c2)N(C(=O)Cc2ccc(-c4n[nH]c(=O)c5ccccc45)cc2)CC3)CC1 [Example 299] = 0.1 to 100 nM
• O=C(Nc1ccc(-c2n[nH]c(=O)c3ccccc23)cc1)C1CC(c2ccccc2)=NO1 (centres unmarked) [Example 196] = 101 to 1000 nM
• CCCc1cc(C(=O)Nc2ccc(-c3n[nH]c(=O)c4ccccc34)cc2)nn1C [Example 229] = 0.1 to 100 nM
• O=C(O)Cn1nc(C(=O)Nc2ccc(-c3n[nH]c(=O)c4ccccc34)cc2)c2ccccc21 [Example 328] = 0.1 to 100 nM
• COc1ccccc1-n1cc(C(=O)Nc2ccc(-c3n[nH]c(=O)c4ccccc34)cc2)cn1 [Example 197] = 0.1 to 100 nM

Give one value of IC50 per listed molecule.
1. O=C(Nc1ccc(-c2n[nH]c(=O)c3ccccc23)cc1)c1nc2ncccn2n1 [Example 112]
2. O=C(Nc1ccc(-c2n[nH]c(=O)c3ccccc23)cc1O)c1nn(CC2CCOC2)c2ccccc12 (centres unmarked) [Example 354]
3. O=C(Cc1ccc(-c2n[nH]c(=O)c3ccccc23)cc1)NCc1ccccc1 [Example 6]

Marked response:
1: 101 to 1000 nM; 2: 0.1 to 100 nM; 3: 101 to 1000 nM

###

# target-desc: ROCK2 (Homo sapiens (Human), UniProt O75116)
# Sequence (O75116 whole entry, species assumed): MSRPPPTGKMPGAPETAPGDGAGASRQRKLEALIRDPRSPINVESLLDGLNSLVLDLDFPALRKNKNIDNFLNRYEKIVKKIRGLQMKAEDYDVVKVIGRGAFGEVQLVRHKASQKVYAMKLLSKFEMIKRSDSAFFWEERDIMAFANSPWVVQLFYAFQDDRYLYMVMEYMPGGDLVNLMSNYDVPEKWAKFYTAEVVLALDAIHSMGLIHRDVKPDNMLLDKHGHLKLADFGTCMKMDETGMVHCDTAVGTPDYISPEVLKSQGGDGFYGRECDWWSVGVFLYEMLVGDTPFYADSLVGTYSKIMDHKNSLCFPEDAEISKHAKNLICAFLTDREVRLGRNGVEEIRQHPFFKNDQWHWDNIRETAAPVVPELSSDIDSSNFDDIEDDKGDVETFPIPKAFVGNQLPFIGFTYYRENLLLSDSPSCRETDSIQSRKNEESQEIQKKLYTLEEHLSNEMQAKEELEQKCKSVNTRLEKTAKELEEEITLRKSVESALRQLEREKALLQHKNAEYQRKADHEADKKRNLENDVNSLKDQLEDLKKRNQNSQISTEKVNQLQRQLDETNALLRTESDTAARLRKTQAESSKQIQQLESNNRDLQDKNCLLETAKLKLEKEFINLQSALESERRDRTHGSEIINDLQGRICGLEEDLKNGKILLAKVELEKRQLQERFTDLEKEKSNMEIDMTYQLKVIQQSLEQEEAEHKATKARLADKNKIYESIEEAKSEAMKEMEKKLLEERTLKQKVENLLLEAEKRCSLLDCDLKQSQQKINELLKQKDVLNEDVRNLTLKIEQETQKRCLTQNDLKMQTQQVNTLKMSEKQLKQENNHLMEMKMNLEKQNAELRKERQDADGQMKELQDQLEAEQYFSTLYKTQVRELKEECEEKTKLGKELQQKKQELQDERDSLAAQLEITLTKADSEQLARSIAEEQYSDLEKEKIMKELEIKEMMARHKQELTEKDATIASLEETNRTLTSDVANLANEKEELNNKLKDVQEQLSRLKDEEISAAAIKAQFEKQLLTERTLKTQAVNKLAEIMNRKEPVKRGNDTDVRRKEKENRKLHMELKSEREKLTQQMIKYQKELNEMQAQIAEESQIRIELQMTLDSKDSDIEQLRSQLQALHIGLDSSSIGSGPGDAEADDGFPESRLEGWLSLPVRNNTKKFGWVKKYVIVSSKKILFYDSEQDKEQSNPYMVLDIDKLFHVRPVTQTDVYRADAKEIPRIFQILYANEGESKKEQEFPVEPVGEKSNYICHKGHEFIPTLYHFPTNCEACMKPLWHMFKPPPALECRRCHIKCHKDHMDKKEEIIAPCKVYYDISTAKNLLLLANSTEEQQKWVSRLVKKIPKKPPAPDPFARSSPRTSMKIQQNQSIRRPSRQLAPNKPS
# assay-method-text: ROCK assay (LABCHIP peptide phosphorylation), ROCK2
# Type: biochemical
# cond: 5 μM ATP, 1.5 μM peptide substrate
Please provide measured IC50 for the entries that follow.

In the examples that follow, each entry is paired with its recorded IC50.
• O=C(Cc1ccc(-c2n[nH]c(=O)c3ccccc23)cc1)N1CCCc2ccccc21 = 101 to 1000 nM
• O=C(Nc1ccc(-c2n[nH]c(=O)c3ccccc23)cc1)c1cnn(-c2ccc(Cl)cc2)c1 = 0.1 to 100 nM
• CCn1cncc1C(=O)Nc1ccc(-c2n[nH]c(=O)c3ccccc23)cc1 = 101 to 1000 nM
• O=C(Nc1ccc(-c2n[nH]c(=O)c3ccccc23)cc1)c1cnn2ccc(OCCN3CCOCC3)cc12 = 0.1 to 100 nM
• CC(C)(C)n1cc(NC(=O)c2ccncc2)c(C(=O)Nc2ccc(-c3n[nH]c(=O)c4ccccc34)cc2)n1 = 0.1 to 100 nM
• O=C(Nc1ccc(-c2n[nH]c(=O)c3ccccc23)cc1)c1c[nH]c2ncccc12 = 0.1 to 100 nM
• O=C(Nc1ccc(-c2n[nH]c(=O)c3ccccc23)cc1)c1nn(Cc2ccncc2)c2ccccc12 = 0.1 to 100 nM
• Cc1cc(C(=O)Nc2ccc(-c3n[nH]c(=O)c4ccccc34)cc2)nn1-c1ccccc1 = 0.1 to 100 nM
• O=C(COc1ccc2c(c1)N(C(=O)Cc1ccc(-c3n[nH]c(=O)c4ccccc34)cc1)CC2)N1CCOCC1 = 0.1 to 100 nM
• Cc1nnc(NC(=O)Cc2ccc(-c3n[nH]c(=O)c4ccccc34)cc2)s1 = 0.1 to 100 nM

Report IC50 for every entry below.
1. CN1CC(=O)c2c(C(=O)Nc3ccc(-c4n[nH]c(=O)c5ccccc45)cc3)coc2C1
2. CC(C)c1c(C(=O)Nc2ccc(-c3n[nH]c(=O)c4ccccc34)cc2)cn2nc[nH]c(=O)c12
3. O=C(Nc1ccc(-c2c[nH]c(=O)c3ccccc23)cc1)c1onc2ccccc12

Marked response:
101 to 1000 nM
0.1 to 100 nM
0.1 to 100 nM

###

For each of the compounds below, state its pIC50.
# target-desc: ROCK1 (Homo sapiens (Human))
# assay-method-text: ROCK assay (LABCHIP peptide phosphorylation), ROCK1
# Type: biochemical
# cond: 5 μM ATP, 1.5 μM peptide substrate; read-out: ROCK1 IC50
pIC50: −log10 of the molar value.

Past entries and their recorded results:
* O=C(Nc1ccc(-c2n[nH]c(=O)c3ccccc23)cc1)c1ccc(-n2cncn2)cc1 [Example 92] | 6.00 to 7.00
* O=C(Cc1ccc(-c2n[nH]c(=O)c3ccccc23)cc1)N1CCc2ccc(OCCN3CCCC3)cc21 [Example 286] | 6.00 to 7.00
* COc1ccc2[nH]nc(C(=O)Nc3ccc(-c4n[nH]c(=O)c5ccccc45)cc3)c2c1 [Example 123] | 6.00 to 7.00
* O=C(Cn1nc(C(=O)Nc2ccc(-c3n[nH]c(=O)c4ccccc34)cc2)c2ccccc21)NCC1(O)CCC1 [Example 335] | 7.00 to 10.00

Batch of 6 compounds: report pIC50 for each.
1. Cc1cc(CC(=O)N2CCc3ccccc32)ccc1-c1n[nH]c(=O)c2ccccc12 [Example 259]
2. COC(=O)COc1ccc2c(c1)N(C(=O)Cc1ccc(-c3n[nH]c(=O)c4ccccc34)cc1)CC2 [Example 283]
3. O=C(Nc1ccc(-c2n[nH]c(=O)c3ccccc23)cc1)c1n[nH]c2ccc(Cl)cc12 [Example 114]
4. CC(=O)N1CC(Cn2nc(C(=O)Nc3ccc(-c4n[nH]c(=O)c5ccccc45)cc3)c3ccccc32)C1 [Example 339]
5. O=C(Nc1ccc(-c2c[nH]c(=O)c3ccccc23)cc1)c1ccc(N2CCCCC2)cc1 [Example 249]
6. COc1ccc2c(=O)[nH]cc(-c3ccc(CC(=O)N4CCc5ccc(OCC(C)(C)O)cc54)cc3)c2c1 [Example 289]

Marked response:
["6.00 to 7.00", "7.00 to 10.00", "6.00 to 7.00", "7.00 to 10.00", "7.00 to 10.00", "7.00 to 10.00"]

###

# target-desc: ROCK1 (Homo sapiens (Human), UniProt Q13464)
# Sequence (Q13464 whole entry, species assumed): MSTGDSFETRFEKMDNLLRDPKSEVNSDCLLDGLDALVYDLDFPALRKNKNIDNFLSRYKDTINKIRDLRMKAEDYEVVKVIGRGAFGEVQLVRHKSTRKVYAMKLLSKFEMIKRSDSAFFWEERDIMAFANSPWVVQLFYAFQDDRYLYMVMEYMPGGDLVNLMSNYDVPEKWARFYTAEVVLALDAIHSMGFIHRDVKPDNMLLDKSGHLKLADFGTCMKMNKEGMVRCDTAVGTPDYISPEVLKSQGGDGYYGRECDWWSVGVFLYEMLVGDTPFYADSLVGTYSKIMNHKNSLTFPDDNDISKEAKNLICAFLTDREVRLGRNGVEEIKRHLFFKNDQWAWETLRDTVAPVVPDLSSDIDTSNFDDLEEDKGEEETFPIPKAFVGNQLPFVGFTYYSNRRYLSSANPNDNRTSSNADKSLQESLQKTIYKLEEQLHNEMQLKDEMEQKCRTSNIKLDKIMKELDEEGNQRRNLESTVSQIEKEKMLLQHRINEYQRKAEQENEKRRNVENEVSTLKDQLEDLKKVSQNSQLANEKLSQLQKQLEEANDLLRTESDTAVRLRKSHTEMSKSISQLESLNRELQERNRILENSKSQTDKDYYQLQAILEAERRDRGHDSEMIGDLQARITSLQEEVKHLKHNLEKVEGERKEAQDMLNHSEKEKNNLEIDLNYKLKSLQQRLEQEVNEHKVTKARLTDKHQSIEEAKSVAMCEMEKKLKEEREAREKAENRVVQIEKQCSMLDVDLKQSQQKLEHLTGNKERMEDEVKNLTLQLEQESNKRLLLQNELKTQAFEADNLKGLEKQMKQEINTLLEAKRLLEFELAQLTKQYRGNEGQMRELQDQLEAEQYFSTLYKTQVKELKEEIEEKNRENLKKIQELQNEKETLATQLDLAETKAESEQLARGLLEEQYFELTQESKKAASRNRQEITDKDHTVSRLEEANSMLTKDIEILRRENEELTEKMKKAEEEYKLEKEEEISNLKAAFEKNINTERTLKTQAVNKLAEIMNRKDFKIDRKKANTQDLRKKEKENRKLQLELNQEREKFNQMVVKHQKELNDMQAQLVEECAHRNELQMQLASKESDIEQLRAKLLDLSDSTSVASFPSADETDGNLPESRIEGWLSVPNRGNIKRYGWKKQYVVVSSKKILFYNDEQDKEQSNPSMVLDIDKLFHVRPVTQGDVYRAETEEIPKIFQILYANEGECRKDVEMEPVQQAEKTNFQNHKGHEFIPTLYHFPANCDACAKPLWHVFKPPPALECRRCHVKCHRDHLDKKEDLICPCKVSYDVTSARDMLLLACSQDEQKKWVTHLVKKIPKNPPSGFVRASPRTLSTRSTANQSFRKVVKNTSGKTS
# assay-method-text: ROCK assay (LABCHIP peptide phosphorylation), ROCK1
# Assay type: biochemical
# cond: 5 μM ATP, 1.5 μM peptide substrate; read-out: ROCK1 IC50
pIC50: −log10 of the molar value.
Exercise: for every item that follows, state its recorded pIC50.

Worked cases, answers included:
• Cc1noc(-c2ccc(CO)cc2)c1C(=O)Nc1ccc(-c2n[nH]c(=O)c3ccccc23)cc1 [Example 224] = 7.00 to 10.00
• COCCOc1ccn2ncc(C(=O)Nc3ccc(-c4n[nH]c(=O)c5ccccc45)cc3)c2c1 [Example 184] = 7.00 to 10.00
• CCCc1c(C(=O)Nc2ccc(-c3n[nH]c(=O)c4ccccc34)cc2)nnn1-c1ccccc1 [Example 231] = 6.00 to 7.00
• CN1CCC(Cn2nc(C(=O)Nc3ccc(-c4n[nH]c(=O)c5ccccc45)cc3)c3ccccc32)CC1 [Example 356] = 7.00 to 10.00
• CN1CCc2nc(C(=O)Nc3ccc(-c4n[nH]c(=O)c5ccccc45)cc3)sc2C1 [Example 51] = 4.30 to 6.00

Quick one: give me pIC50 for each item below, same order please.
1. O=C(c1ccc2c(c1)CCN2C(=O)Cc1ccc(-c2n[nH]c(=O)c3ccccc23)cc1)N1CCOCC1 [Example 296]
2. Cc1cccc(-n2cnc(C(=O)Nc3ccc(-c4n[nH]c(=O)c5ccccc45)cc3)c2)c1 [Example 195]
3. O=C(Cc1ccc(-c2n[nH]c(=O)c3ccccc23)cc1)Nc1nc2ccccc2o1 [Example 10]
4. O=C(Cc1ccc(-c2n[nH]c(=O)c3ccccc23)cc1)N1CCCc2ccccc21 [Example 34]
5. O=C(Nc1ccc(-c2n[nH]c(=O)c3ccccc23)cc1)c1nn(CC2CCOCC2)c2ccccc12 [Example 150]
6. O=C(Nc1ccc(-c2n[nH]c(=O)c3ccccc23)cc1)c1cnn2ccc(OCCN3CCCC3)cc12 [Example 183]
7. O=C(c1ccc2c(c1)CCN2C(=O)Cc1ccc(-c2n[nH]c(=O)c3ccccc23)cc1)N1CCC(O)CC1 [Example 294]

Marked response:
1: 6.00 to 7.00; 2: 7.00 to 10.00; 3: 6.00 to 7.00; 4: 4.30 to 6.00; 5: 7.00 to 10.00; 6: 7.00 to 10.00; 7: 6.00 to 7.00

// each compound listed below needs its pIC50
1. COCCN1CCC(C(=O)Nc2ccc(-c3n[nH]c(=O)c4ccccc34)cc2)C1 (stereo not shown) [Example 57]
2. O=C(Nc1ccc(-c2n[nH]c(=O)c3ccccc23)c(CO)c1)c1nn(CCO)c2ccccc12 [Example 359]
3. O=C(Nc1ccc(-c2n[nH]c(=O)c3ccccc23)cc1)C1CCN(c2ccc([N+](=O)[O-])cc2)CC1 [Example 54]
4. Cn1nc2ccccc2c1C(=O)Nc1ccc(-c2n[nH]c(=O)c3ccccc23)cc1 [Example 131]

Marked response:
["4.30 to 6.00", "4.30 to 6.00", "6.00 to 7.00", "7.00 to 10.00"]
